I'd appreciate it if you could supply SHIP2 Inhibition values for the items below.
Test system: SHIP2
Experiment: Malachite green phosphatase release assay, SHIP2
Type: biochemical, human
Conditions: Malachite green assay at 1mM

COMPOUND	EXPERIMENTAL READOUT	REPORTED
CSc1ccc2c(c1)c(CCN)c(C)n2Cc1ccc(Cl)cc1.Cl [Compound K160]	SHIP2 Inhibition	61%
Cc1c(CCN)c2ccccc2n1Cc1ccccc1Cl.Cl [Compound K124]	SHIP2 Inhibition	70%
CSc1ccc2c(c1)c(CCN)c(C)n2Cc1ccccc1.Cl [Compound K125]	SHIP2 Inhibition	80%

// next entry
Inquiry: What value of SHIP2 Inhibition has been reported for the following compound? Cc1c(CCN)c2cc(Br)ccc2n1Cc1ccccc1Cl.Cl [Compound K148]
Reply text: 70%
